Reported % inhibition of LSD1 demethylase activity at 100 μM peptide by item:
experimental_target: LSD1_(172-833), lysine-specific demethylase 1 (human, UniProt O60341-1 172-833)
assay_info: cell-based or functional assay
Numbered stars: 1 amine (or outer) side, 2 acyl side, 3 side chain; on linkers, the order of the positions; unused ones are H or OH. Bridge positions count the residues as written; N and C are the ends. Square brackets hold non-standard residues; d marks the D form. Ends that are not written are not given here. dNle(6-ylidene) = O=C([C@@H](CCCC=[*:3])N[*:1])[*:2]; Gly(pent-4-enyl) = C=CCCC[C@H](N)C(=O)O; AllylGly = C=CC[C@H](N)C(=O)O
// return numeric value only (unit: %, not printed)

Sample records with % inhibition of LSD1 demethylase activity at 100 μM peptide:
binder	test_value
[AllylGly]R[AllylGly]MQTARKST-NH2 [peptide 18, linear precursor of 19 (allylglycine at positions 1 and 3 of H3_(1-11) K4M)]	98
AR[dNle(6-ylidene)]MQ[dNle(6-ylidene)]ARKST-NH2 (staple 3-6) [stapled macrocycle 26 (stereoisomer of 23, D-pentenyl glycine at 3 and 6)]	90
AR[Gly(pent-4-enyl)]MQ[Gly(pent-4-enyl)]ARKST-NH2 [peptide 22, linear precursor of 23 (pentenylglycine at positions 3 and 6 of H3_(1-11) K4M)]	100

q: Provide % inhibition of LSD1 demethylase activity at 100 μM peptide value for the following binder: [AllylGly]R[AllylGly]MQTARKST-NH2 (staple 1-3) [stapled peptide 19 (Ala1-Thr3 cyclization, 4-carbon olefin bridge)]
a: 100

q: Provide % inhibition of LSD1 demethylase activity at 100 μM peptide value for the following binder: AR[Gly(pent-4-enyl)]MQ[Gly(pent-4-enyl)]ARKST-NH2 (staple 3-6) [stapled macrocycle 23 (8-carbon olefin bridge between residues 3 and 6)]
a: 75

q: Provide % inhibition of LSD1 demethylase activity at 100 μM peptide value for the following binder: AR[AllylGly]MQ[AllylGly]ARKST-NH2 (staple 3-6) [stapled peptide 21 (Thr3-Thr6 cyclization, 4-carbon olefin bridge)]
a: 95
